experiment: solvent given as SMILES
setup conditions: in ClCCl
# label = bin(measured emission maximum), where bins are 1 = under 400 nm, 2 = from 400 nm up to 500 nm, 3 = 500 nm and over

Reference set, count: 10
c1ccc(-n2nc(-c3ccc(N4c5ccccc5Sc5ccccc54)cc3)nc2-c2ccccn2)cc1 | 2
CC1=c2ccccc2=[N+]2C1=Cc1c3ccccc3c(-c3[nH]c4ccccc4c3C)n1[B-]2(F)F | 3
CN(C)c1ccc(/C=C/C=C2\CC/C(=C\c3ccc(N(C)C)cc3)C2=O)cc1 | 3
C(#Cc1cccc2nsnc12)c1ccc(-n2c3ccccc3c3ccccc32)cc1 | 3
CC(C)c1cc(C(C)C)c(B2c3cc(-n4c5ccccc5c5ccccc54)ccc3N(c3ccccc3)c3ccc(-n4c5ccccc5c5ccccc54)cc32)c(C(C)C)c1 | 2
CC(C)[Si](C#Cc1c2nc3ccccc3nc2c(C#C[Si](C(C)C)(C(C)C)C(C)C)c2nc3c4ccccc4c(=O)c4ccccc4c3nc12)(C(C)C)C(C)C | 3
CCCCN(CCCC)c1ccc2c(c1)C#CC#Cc1cc(N(CCCC)CCCC)ccc1C#Cc1cc(c3cc1C#Cc1ccc(C(F)(F)F)cc1C#CC#Cc1cc(C(F)(F)F)ccc1C#C3)C#C2 | 3
CC1(C)c2ccccc2-c2sc3ccccc3c21 | 1
CCN(CC)c1ccc(/C=N/c2cc3ccccc3cc2/N=C/c2ccc(N(CC)CC)cc2O)c(O)c1 | 3
CCCCN(CCCC)c1ccc2c#cc3cc4c#cc5ccc(N(CCCC)CCCC)cc5c#cc#cc5cc(C(F)(F)F)ccc5c#cc4cc3c#cc3ccc(C(F)(F)F)cc3c#cc#cc2c1 | 3

## Input Which bin should I file CCOC(=O)CC[N+]1=c2cc3c(cc2CCC1)=Cc1c(c2cc4c5c(c2oc1=O)CCCN5CCC4)O3 under?
## Output 3

## Input State the band of [O-][n+]1c(/C=C/C=C/c2ccccc2)nc(N2CCOCC2)c2c1CCCC2
## Output 3

* * *

experiment: solvent given as SMILES
setup conditions: in ClCCl
attribute measured: emission maximum
Field note: include the unit after the figure.

CC[N+](CC)=c1ccc2c(C(F)(F)F)c3c(oc-2c1)-c1ccc(N(C)C)cc1CC3 | 713 nm

## Input Query (molecule): O=c1cc(-c2ccccc2)oc(-c2ccc(-c3nc4ccccn4c3NC3CCCCC3)cc2)c1 ; field requested: emission maximum
## Output 508 nm

## Input # emission maximum lookup, item CC(=O)c1c(N[C@@H](CS)C(=O)O)c2ccc(N(C)C)cc2oc1=O
## Output 424 nm

## Input Name the reported emission maximum value associated with the molecule CCn1c2ccccc2c2cc(/C=C/c3cc(/C=C/c4ccc5c(c4)c4ccccc4n5CC)ncn3)ccc21
## Output 492 nm

## Input # emission maximum lookup, item CC1(C)C2=C(c3ccccc31)S(=O)(=O)c1ccccc12
## Output 444 nm

## Input Request the reported emission maximum associated with CCC1(CC)c2cc(C#Cc3cc(C#Cc4ccc5c(c4)C(CC)(CC)c4cc(N(c6ccccc6)c6ccccc6)ccc4-5)c4ccc5c(C#Cc6ccc7c(c6)C(CC)(CC)c6cc(N(c8ccccc8)c8ccccc8)ccc6-7)cc(C#Cc6ccc7c(c6)C(CC)(CC)c6cc(N(c8ccccc8)c8ccccc8)ccc6-7)c6ccc3c4c65)ccc2-c2ccc(N(c3ccccc3)c3ccccc3)cc21
## Output 567 nm

## Input State the recorded emission maximum for this entry: Cc1cc(O)c(C(=O)/C=C/c2ccc(Cl)cc2)c(=O)o1
## Output 478 nm

## Input Fill blank: measured emission maximum of the molecule CC1=[N+]2C(=C(c3c4ccccc4c(-c4ccccc4)c4ccccc34)c3ccc(C)n3[B-]2(F)F)C=C1 is ____.
## Output 533 nm

## Input // returns reported emission maximum for input c1ccc(C2=C(c3ccccc3)c3cccc4c3c(cc3nc5cc(-c6ccc(N(c7ccccc7)c7ccccc7)cc6)c(-c6ccc(N(c7ccccc7)c7ccccc7)cc6)cc5nc34)O2)cc1
## Output 568 nm

## Input Returns the measured emission maximum for the input molecule. Input: COc1cccc(-n2c(-c3ccc(O)cc3)nc(C)c2C)c1
## Output 369 nm

Taken from the Deep4Chem optical property database.
